The measured values listed here are drawn from patent US20210214461A1.

Consider the following binders; for each one, report its % reduction in OD.
measurement target: pre-existing anti-scFv903 antibodies in human serum H79 (human)
test summary: competition ADA bridging ELISA, 100 mcg/ml competitor
Enter your answer as a number in %; do not include the unit.

In: Name the recorded % reduction in OD for scFv105 (scFv) scFv: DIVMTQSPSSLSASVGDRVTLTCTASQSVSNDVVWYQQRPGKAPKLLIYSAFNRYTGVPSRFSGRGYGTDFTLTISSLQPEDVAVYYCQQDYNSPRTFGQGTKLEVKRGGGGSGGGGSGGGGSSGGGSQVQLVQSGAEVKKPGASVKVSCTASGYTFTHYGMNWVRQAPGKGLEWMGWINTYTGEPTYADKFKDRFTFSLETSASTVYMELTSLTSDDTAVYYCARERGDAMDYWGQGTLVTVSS .
Out: -40.5

In: Name the recorded % reduction in OD for scFv 791 (scFv) scFv: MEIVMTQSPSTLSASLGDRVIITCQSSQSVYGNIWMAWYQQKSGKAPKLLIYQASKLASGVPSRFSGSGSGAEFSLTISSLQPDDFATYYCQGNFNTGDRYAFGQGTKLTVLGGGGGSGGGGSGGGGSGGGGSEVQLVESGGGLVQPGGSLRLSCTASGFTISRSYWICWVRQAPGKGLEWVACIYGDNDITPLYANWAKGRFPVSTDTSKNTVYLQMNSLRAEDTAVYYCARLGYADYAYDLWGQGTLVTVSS .
Out: -96.8

In: Name the recorded % reduction in OD for scFv 903 (scFv) scFv: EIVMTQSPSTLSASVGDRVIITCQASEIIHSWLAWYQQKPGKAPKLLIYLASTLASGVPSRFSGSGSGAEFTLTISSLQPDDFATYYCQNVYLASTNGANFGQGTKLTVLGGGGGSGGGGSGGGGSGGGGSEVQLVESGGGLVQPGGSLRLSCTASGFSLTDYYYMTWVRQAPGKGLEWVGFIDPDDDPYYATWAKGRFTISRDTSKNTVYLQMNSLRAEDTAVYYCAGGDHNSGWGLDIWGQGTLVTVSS .
Out: -97.1

In: Name the recorded % reduction in OD for scFv 961 (scFv) scFv: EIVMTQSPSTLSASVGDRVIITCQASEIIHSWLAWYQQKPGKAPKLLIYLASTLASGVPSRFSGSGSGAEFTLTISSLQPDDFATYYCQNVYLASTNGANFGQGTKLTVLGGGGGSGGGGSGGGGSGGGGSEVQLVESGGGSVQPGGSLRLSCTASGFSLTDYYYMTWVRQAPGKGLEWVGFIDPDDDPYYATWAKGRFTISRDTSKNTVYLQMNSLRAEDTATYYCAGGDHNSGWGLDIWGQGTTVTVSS .
Out: -74.1
